- Measurement target: panel of more than 300 wild-type and mutant kinases (313 kinase panel) (Homo sapiens)
- Assay protocol: Kinase profiling in a biochemical assay panel (mobility shift assays and ELISA), %-inhibition at 1 μM; selectivity entropy
- Assay setup: kinase Erk1; compound at 1 μM
Measurement label: %-inhibition of Erk1 (%)
Entry rule: numbers only, all in %.

Illustrative cases are given below, each with its answer.
Q) Given the compound CS(=O)(=O)CCNCc1ccc(-c2ccc3ncnc(Nc4ccc(OCc5cccc(F)c5)c(Cl)c4)c3c2)o1 , what is its reported %-inhibition of Erk1?
A) -4

Q) Given the compound CC(C)(C)c1nc(-c2cccc(NS(=O)(=O)c3c(F)cccc3F)c2F)c(-c2ccnc(N)n2)s1 , what is its reported %-inhibition of Erk1?
A) -1.62

Q) Given the compound Cc1cn(-c2cc(NC(=O)c3ccc(C)c(Nc4nccc(-c5cccnc5)n4)c3)cc(C(F)(F)F)c2)cn1 , what is its reported %-inhibition of Erk1?
A) 3.21

Q) Given the compound COc1cc2c(Nc3ccc(Br)cc3F)ncnc2cc1OCC1CCN(C)CC1 , what is its reported %-inhibition of Erk1?
A) -1.55

Q) Given the compound O=S(=O)(c1cccc2cnccc12)N1CCCNCC1 , what is its reported %-inhibition of Erk1?
A) -3

Q) Given the compound CO[C@H]1C[C@@H]2CC[C@@H](C)[C@@](O)(O2)C(=O)C(=O)N2CCCC[C@H]2C(=O)O[C@H]([C@H](C)C[C@@H]2CC[C@@H](OC(=O)C(C)(CO)CO)[C@H](OC)C2)CC(=O)[C@H](C)/C=C(\C)[C@@H](O)[C@@H](OC)C(=O)[C@H](C)C[C@H](C)/C=C/C=C/C=C/1C , what is its reported %-inhibition of Erk1?
A) 0.373

Turning now to a further record.
Q) Given the compound CNC(=O)c1cc(Oc2ccc(NC(=O)Nc3ccc(Cl)c(C(F)(F)F)c3)c(F)c2)ccn1 , what is its reported %-inhibition of Erk1?
A) -2

====

- Measurement target: panel of more than 300 wild-type and mutant kinases (313 kinase panel) (Homo sapiens)
- Assay protocol: Kinase profiling in a biochemical assay panel (mobility shift assays and ELISA), %-inhibition at 1 μM; selectivity entropy
- Assay setup: kinase FER; compound at 1 μM
Measurement label: %-inhibition of FER (%)
Entry rule: numbers only, all in %.

Illustrative cases are given below, each with its answer.
Q) Given the molecule CC(C)(C)c1nc(-c2cccc(NS(=O)(=O)c3c(F)cccc3F)c2F)c(-c2ccnc(N)n2)s1 , what is its reported %-inhibition of FER?
A) 22

Q) Given the molecule CO[C@H]1C[C@@H]2CC[C@@H](C)[C@@](O)(O2)C(=O)C(=O)N2CCCC[C@H]2C(=O)O[C@H]([C@H](C)C[C@@H]2CC[C@@H](OC(=O)C(C)(CO)CO)[C@H](OC)C2)CC(=O)[C@H](C)/C=C(\C)[C@@H](O)[C@@H](OC)C(=O)[C@H](C)C[C@H](C)/C=C/C=C/C=C/1C , what is its reported %-inhibition of FER?
A) -4

Turning now to a further record.
Q) Given the molecule CNC(=O)c1cc(Oc2ccc(NC(=O)Nc3ccc(Cl)c(C(F)(F)F)c3)c(F)c2)ccn1 , what is its reported %-inhibition of FER?
A) -2

====

In this section, each of the compounds is paired with its reported %-inhibition, CDK2/CycE1.
- Measurement target: panel of more than 300 wild-type and mutant kinases (313 kinase panel) (Homo sapiens, UniProt P24941)
- Assay protocol: Kinase profiling in a biochemical assay panel (mobility shift assays and ELISA), %-inhibition at 1 μM; selectivity entropy
- Assay setup: kinase CDK2/CycE1; 1 μM compound
Respond with the figure and its unit, in that order.

Illustrative cases are given below, each with its answer.
Q) Given the compound CNC(=O)c1cc(Oc2ccc(NC(=O)Nc3ccc(Cl)c(C(F)(F)F)c3)c(F)c2)ccn1 , what is its reported %-inhibition, CDK2/CycE1?
A) -2.7%

Q) Given the compound CO[C@H]1C[C@@H]2CC[C@@H](C)[C@@](O)(O2)C(=O)C(=O)N2CCCC[C@H]2C(=O)O[C@H]([C@H](C)C[C@@H]2CC[C@@H](OC(=O)C(C)(CO)CO)[C@H](OC)C2)CC(=O)[C@H](C)/C=C(\C)[C@@H](O)[C@@H](OC)C(=O)[C@H](C)C[C@H](C)/C=C/C=C/C=C/1C , what is its reported %-inhibition, CDK2/CycE1?
A) -1.35%

Q) Given the compound C[C@@H](Oc1cc(-c2cnn(C3CCNCC3)c2)cnc1N)c1c(Cl)ccc(F)c1Cl , what is its reported %-inhibition, CDK2/CycE1?
A) -14%

***
Q) Given the compound Cc1ccc(C(=O)Nc2ccc(CN3CCN(C)CC3)c(C(F)(F)F)c2)cc1C#Cc1cnc2cccnn12 , what is its reported %-inhibition, CDK2/CycE1?
A) 9%

Q) Given the compound CC(=O)Nc1cccc(-n2c(=O)n(C3CC3)c(=O)c3c(Nc4ccc(I)cc4F)n(C)c(=O)c(C)c32)c1 , what is its reported %-inhibition, CDK2/CycE1?
A) 2.59%

Q) Given the compound N#CC[C@H](C1CCCC1)n1cc(-c2ncnc3[nH]ccc23)cn1 , what is its reported %-inhibition, CDK2/CycE1?
A) -12%

Q) Given the compound O=S(=O)(c1cccc2cnccc12)N1CCCNCC1 , what is its reported %-inhibition, CDK2/CycE1?
A) 13%

Q) Given the compound Cc1ccc(Nc2nccc(N(C)c3ccc4c(C)n(C)nc4c3)n2)cc1S(N)(=O)=O , what is its reported %-inhibition, CDK2/CycE1?
A) -0.507%

Q) Given the compound CO[C@H]1C[C@@H]2CC[C@@H](C)[C@@](O)(O2)C(=O)C(=O)N2CCCC[C@H]2C(=O)O[C@H]([C@H](C)C[C@@H]2CC[C@@H](OCCO)[C@H](OC)C2)CC(=O)[C@H](C)/C=C(\C)[C@@H](O)[C@@H](OC)C(=O)[C@H](C)C[C@H](C)/C=C/C=C/C=C/1C , what is its reported %-inhibition, CDK2/CycE1?
A) -14%
